- System: Fibroblast
- ASSAY: Multiplex assay against human fibroblast
- Format: toxicity, cell-based
- CONDITION PARAMETERS: 12 h, 1 µM, compound concentration 1 uM, replicate 1
Population Tubulin-Different-Phenotype (%) strictly less than 20% = yes. Otherwise no.

Q: Hello, I'm reviewing records and need to know if Population Tubulin-Different-Phenotype (%) of CCC(=O)O[C@]1(C(=O)SCF)[C@H](C)C[C@H]2[C@@H]3C[C@H](F)C4=CC(=O)C=C[C@]4(C)[C@@]3(F)[C@@H](O)C[C@@]21C [FLUTICASONE PROPIONATE] is below 20%. Could you check?
A: no

Q: Hello, I'm reviewing records and need to know if Population Tubulin-Different-Phenotype (%) of COc1cc2c(NC3CCN(C(C)C)CC3)nc(N3CCC(F)(F)CC3)nc2cc1OCCCN1CCCC1 is below 20%. Could you check?
A: no

Q: Hello, I'm reviewing records and need to know if Population Tubulin-Different-Phenotype (%) of CC(C)(C)c1cnc(CSc2cnc(NC(=O)C3CCNCC3)s2)o1 [BMS-387032] is below 20%. Could you check?
A: yes

Q: Hello, I'm reviewing records and need to know if Population Tubulin-Different-Phenotype (%) of CC(=O)O[C@H]1C(=O)[C@@]2(C)[C@H]([C@H](OC(=O)c3ccccc3)[C@]3(O)C[C@H](OC(=O)[C@H](O)[C@@H](NC(=O)c4ccccc4)c4ccccc4)C(C)=C1C3(C)C)[C@]1(OC(C)=O)CO[C@@H]1C[C@@H]2O [PACLITAXEL] is below 20%. Could you check?
A: yes

Q: Hello, I'm reviewing records and need to know if Population Tubulin-Different-Phenotype (%) of CCc1cc2c(cc1CC)CC(NC[C@H](O)c1ccc(O)c3[nH]c(=O)ccc13)C2 [INDACATEROL] is below 20%. Could you check?
A: no

Q: Hello, I'm reviewing records and need to know if Population Tubulin-Different-Phenotype (%) of CNc1oc(-c2cccc3ccccc23)nc1C#N is below 20%. Could you check?
A: yes

Q: Hello, I'm reviewing records and need to know if Population Tubulin-Different-Phenotype (%) of Cl.Cl.Nc1ncnc2c1c(-c1cccc(OCc3ccccc3)c1)cn2[C@H]1C[C@@H](CN2CCC2)C1 is below 20%. Could you check?
A: no
